Origin of values: patent US20120010075A1

observable: melting point

**Q:** Give the reported melting point for this molecule. `O=C(N/N=C/c1c(O)cccc1Cl)c1ccc(F)cc1`
**A:** 266 to 268 °C

**Q:** Give the reported melting point for this molecule. `COc1cccc(/C(C)=N/NC(=O)c2ccccc2C)c1O`
**A:** 208 to 209 °C

**Q:** Give the reported melting point for this molecule. `O=C(N/N=C/c1c(Cl)ccc(Cl)c1O)c1ccc(Cl)cc1`
**A:** 271 to 273 °C

**Q:** Give the reported melting point for this molecule. `O=C(N/N=C/c1cccc(F)c1O)c1ccccc1`
**A:** 197 to 198 °C

Next:
**Q:** Give the reported melting point for this molecule. `C/C(=N\NC(=O)c1cccc(Cl)c1)c1cc(C(F)(F)F)ccc1O`
**A:** 241 to 245 °C
